meta.source: ChEMBL document CHEMBL1201862

# Tested on: HOP-92
# assay-explanation: NCI tumour cell line growth inhibition, 48 h
Active and inactive are the calls of the source. Rule as the data show it: active = GI50 up to about 1.1 µM and inactive = higher.
measurement-type: GI50

O=C(O)c1nn(-c2ccccc2)nc1-c1nn(-c2ccccc2)nc1C(=O)O: > 100 µM (inactive)

Moving on to the next compound.
Using the record for Cn1cnc([N+](=O)[O-])c1Sc1nc2cc([N+](=O)[O-])ccc2[nH]1 , state its measured GI50.
17.3 µM (inactive)

====

# Test system: CCRF-CEM
# assay-explanation: NCI tumour cell line growth inhibition, 48 h
Activity calls are given as the source filed them. No stated cut-off is given here; in the data, active = GI50 up to about 1.1 µM and inactive = higher.
measurement-type: GI50

See these solved cases before continuing.
O=Cc1ccc(-c2ccc(-c3ccc(CO)s3)o2)s1: 1.58 µM (inactive)
Cn1cnc([N+](=O)[O-])c1Sc1nc2cc([N+](=O)[O-])ccc2[nH]1: 15.4 µM (inactive)
CCC(=O)NC(Nc1cc(C)on1)(C(F)(F)F)C(F)(F)F: > 100 µM (inactive)

Moving on to the next compound.
Using the record for CCOC(=O)c1c(O)cn2c1[nH]c1cccc3cccc2c31 , state its measured GI50.
32.6 µM (inactive)

====

# Test system: RPMI-8226
# assay-explanation: NCI tumour cell line growth inhibition, 48 h
Active and inactive are the calls of the source. Rule as the data show it: active = GI50 up to about 1.1 µM and inactive = higher.
measurement-type: GI50

NC(=O)CC(/N=C1\C(=O)OC(C(O)CO)\C1=N/C(CC(N)=O)C(=O)O)C(=O)O (stereo not given): > 100 µM (inactive)
CCc1ccccc1NC(=O)C(=O)C(C(=O)c1ccc(OC)cc1)c1ccc(OC)cc1 (stereo not given): > 100 µM (inactive)
Cn1nc(C(=O)N2CC(CCl)c3c2cc(N)c2ccccc32)cc1NC(=O)Nc1cc(C(=O)N2CC(CCl)c3c2cc(N)c2ccccc32)nn1C (stereo not given): 3.3 µM (inactive)
O=C1NC(=O)C(CCC(=O)c2cccc3ccccc23)C(=O)N1: 48.8 µM (inactive)

Using the record for CC(C)(C)C1=NO[C@H]2[C@@H](NC(=O)c3ccccc3)CC[C@@H]12 , state its measured GI50.
> 100 µM (inactive)

====

# System: NCI-H460
# assay-explanation: NCI tumour cell line growth inhibition, 48 h
Active and inactive are the calls of the source. No stated cut-off is given here; in the data, active = GI50 up to about 1.1 µM and inactive = higher.
measurement-type: GI50

See these solved cases before continuing.
CC1CC2=Nc3ccccc3NC(c3ccccc3)C2=C(O)O1 (centres undefined): > 100 µM (inactive)
CN1CCCC(C(=O)OCC(=O)C2(O)CCC3C4CCC5=CC(=O)CCC5(C)C4C(O)CC32C)C1 (centres undefined): 11.5 µM (inactive)
COc1ccc(NC(=O)NNS(=O)(=O)c2ccc(C)cc2)cc1: > 100 µM (inactive)

Using the record for OCCN1CCN2C=C(C3CCCC4N(CCO)CCN34)CCC21 (centres undefined) , state its measured GI50.
> 100 µM (inactive)

====

# Test system: HCT-116
# assay-explanation: NCI tumour cell line growth inhibition, 48 h
Calls of active or inactive are those of the source. Rule as the data show it: active = GI50 up to about 1.1 µM and inactive = higher.
measurement-type: GI50

See these solved cases before continuing.
CCCCN=C(OC1C=CCCC1)SC (stereo not given): > 100 µM (inactive)
COC(=O)C1=C2CCC(=O)[C@@]2(C)C(OC(C)=O)C=CC1 (stereo not given in full): 24.5 µM (inactive)
C[C@H](Nc1nc(N)c(N=O)c(=O)n1C)C(=O)O: > 10 µM (inactive)
N#CC1Nc2ccccc2[C@@H](O)C1O (stereo not given in full): > 100 µM (inactive)

Moving on to the next compound.
Using the record for C/C=C/[C@@H](C(=O)OC)N1C(=O)c2ccccc2[C@H]1O , state its measured GI50.
> 100 µM (inactive)
